src = BigSolDB 2.1

condition.details: in water, 323.15 K
quantity.name: solubility (mole fraction)
Answers are plain numbers.

Exercise: So what does the record say about solubility (mole fraction) for [NH3+]O.[NH3+]O.[O-]n1nnnc1-c1nnnn1[O-] ?
Solution: 5.5e-05

====

condition.details: in ethyl acetate, 323.15 K
quantity.name: solubility (mole fraction)
Answers are plain numbers.

Exercise: So what does the record say about solubility (mole fraction) for [NH3+]O.[NH3+]O.[O-]n1nnnc1-c1nnnn1[O-] ?
Solution: 3.92e-06

====

condition.details: in ethanol, 313.15 K
quantity.name: solubility (mole fraction)
Answers are plain numbers.

Exercise: So what does the record say about solubility (mole fraction) for [NH3+]O.[NH3+]O.[O-]n1nnnc1-c1nnnn1[O-] ?
Solution: 8.16e-06
